variants and their reported protein stability index
B1: SPATS1 (parent)
chain: GRKKYDIDPRNGIPKLTPGDNPYM

variants of: B1; assay: protein stability index of a GFP-peptide fusion (GPS, HEK-293T) (PSI 1-6); higher = more stable; details: c terminus: a fixed tail appended;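 also: lentivirally expressed fusions sorted by FACS into six bins by GFP to DsRed ratio, PSI derived from sequencing read proportions per bin multiplied by bin number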
Give the value as a plain number.

[
  {
    "VARIANT_KEY": "K3L",
    "PROPERTY_LABEL": "protein stability index",
    "MEASURED": 3.19
  },
  {
    "VARIANT_KEY": "I7T",
    "PROPERTY_LABEL": "protein stability index",
    "MEASURED": 3.75
  },
  {
    "VARIANT_KEY": "R10A",
    "PROPERTY_LABEL": "protein stability index",
    "MEASURED": 3.48
  },
  {
    "VARIANT_KEY": "N11C",
    "PROPERTY_LABEL": "protein stability index",
    "MEASURED": 2.77
  }
]

Any idea what protein stability index was measured for K4E ? 4.1

Any idea what protein stability index was measured for N21V ? 3.14

Any idea what protein stability index was measured for P9M ? 3.28

Any idea what protein stability index was measured for L16N ? 4.24

Any idea what protein stability index was measured for K3A ? 3.2

Numbers sourced from the supplement of paper PMC10567573.
